- testedSystem: T1, HCV Core1-169 (hepatitis C virus (HCV-1), UniProt P26664 1-169)
- T1 sequence: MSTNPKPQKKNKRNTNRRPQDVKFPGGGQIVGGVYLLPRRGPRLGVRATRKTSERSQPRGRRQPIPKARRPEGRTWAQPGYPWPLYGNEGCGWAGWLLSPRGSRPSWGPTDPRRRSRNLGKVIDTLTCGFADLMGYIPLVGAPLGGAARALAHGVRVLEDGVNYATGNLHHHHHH
- experiment: SPR sandwich, capture mAb C11-7
experimentalEndpoint: expected percent binding (%)
Give your result in % as a bare value.

*Q* // returns reported expected percent binding for input HCV 208A-126 (antibody, V domains shown) VH: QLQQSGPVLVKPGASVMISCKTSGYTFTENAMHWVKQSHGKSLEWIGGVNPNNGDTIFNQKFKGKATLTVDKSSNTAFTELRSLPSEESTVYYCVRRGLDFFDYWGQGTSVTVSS VL: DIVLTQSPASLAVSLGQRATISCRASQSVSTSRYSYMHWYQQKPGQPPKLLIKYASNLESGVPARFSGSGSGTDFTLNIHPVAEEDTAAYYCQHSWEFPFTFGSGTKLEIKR
*A* 2
